# Target Under Test: Alpha glucosidase (Homo sapiens, UniProt O43451+P10253+P14410+Q2M2H8)
# Experiment Notes: Inhibition of alpha-glucosidase (unknown origin) using p-nitrophenyl-alpha-d-glucopyranoside as substrate preincubated for 10 mins followed by substrate addition measured after 30 mins
# Assay type: protein assay
Collected IC50 values appear next to each entry.

O=C(NNC(=S)Nc1ccccc1Br)c1ccc(-c2nnc(-c3ccccc3Cl)o2)cc1
400 to 38000 nM
O=C(NNC(=S)Nc1ccc(Br)cc1)c1ccc(-c2nnc(-c3ccccc3Cl)o2)cc1
400 to 38000 nM
O=C(NNC(=S)Nc1ccccc1Cl)c1ccc(-c2nnc(-c3ccccc3Cl)o2)cc1
700 nM
O=C(NNC(=S)Nc1ccc(C(F)(F)F)cc1)c1ccc(-c2nnc(-c3ccccc3Cl)o2)cc1
600 nM
O=C(NNC(=S)Nc1ccc(Cl)c(Cl)c1)c1ccc(-c2nnc(-c3ccccc3Cl)o2)cc1
400 to 38000 nM
COc1ccccc1NC(=S)NNC(=O)c1ccc(-c2nnc(-c3ccccc3Cl)o2)cc1
400 to 38000 nM
CCOC(=O)C1=C(Nc2cccc(Cl)c2)C[C@@H](c2ccc(Cl)cc2)N(c2cccc(Cl)c2)[C@@H]1c1ccc(Cl)cc1
2300 to 29000 nM
O=C(NNC(=S)Nc1cccc(F)c1)c1ccc(-c2nnc(-c3ccccc3Cl)o2)cc1
400 to 38000 nM
O=C(NNC(=S)Nc1ccc([N+](=O)[O-])cc1)c1ccc(-c2nnc(-c3ccccc3Cl)o2)cc1
400 to 38000 nM
O=C(NNC(=S)Nc1cccc([N+](=O)[O-])c1)c1ccc(-c2nnc(-c3ccccc3Cl)o2)cc1
400 to 38000 nM

What does the data say about its IC50? Entry: Cc1ccc(NC(=S)NNC(=O)c2ccc(-c3nnc(-c4ccccc4Cl)o3)cc2)cc1
400 to 38000 nM

// next record COc1ccc(NC(=S)NNC(=O)c2ccc(-c3nnc(-c4ccccc4Cl)o3)cc2)cc1
400 to 38000 nM

From: ChEMBL document CHEMBL4304757
